Test: chemical genetic growth profiling, strain panel (AID 1159580);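 further: tested at 20 µM; growth read once vehicle control cultures reached saturation at 30 °C; 1 = growth at the plate median or of vehicle wells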
Conditions: S. cerevisiae deletion strains, growth OD, locus YOR069W, strain VPS5
Hit rate of the full screen: of about 5,500 compounds, about 2,000 (36%) were called active. Inconclusive results (about 18%) are left out. No stated cut-off is given here; in the data, active means normalized growth mostly below about 0.91 (no sharp cut-off); inconclusive means no clear call, values can overlap the other calls; inactive means mostly above about 0.92. Some of the results follow.
API: response.call in active, inactive

Check out these entries, answers already filled in.
Substance Smiles	Category Label
CC(=O)Oc1ccc(O)cc1	inactive
CC(=O)Oc1ccc(/C=C/c2cc(OC(C)=O)cc(OC(C)=O)c2)cc1	inactive

stdin: Please share the test call associated with `CC1=CC(=O)c2ccccc2C1=O` .
stdout: active

###

Test: chemical genetic growth profiling, strain panel (AID 1159580);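 further: tested at 20 µM; growth read once vehicle control cultures reached saturation at 30 °C; 1 = growth at the plate median or of vehicle wells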
Details: S. cerevisiae deletion strains, growth OD, locus YLR371W, strain rom2, stronger effect = lower value
About 2,000 (36%) of roughly 5,500 compounds were called active. Roughly 18% stayed inconclusive and do not appear here. Some of the results follow.
Form field: normalized growth (one value per entry).

Examples with answers:
Substance Smiles	normalized growth
OC[C@H]1O[C@@H](O[C@@H]2[C@@H](CO)O[C@](O)(CO)[C@H]2O)[C@H](O)[C@@H](O)[C@H]1O	0.974 (inactive)
NCC(=O)c1ccccc1	0.993 (inactive)
CCN(CC)CCOC(=O)C1(C2CCCCC2)CCCCC1	0.973 (inactive)

stdin: Fill in: normalized growth of `NC(=O)NC(=O)Cc1ccccc1` is ___
stdout: 0.997 (inactive)

stdin: Fill in: normalized growth of `CN(C)[C@@H]1C(=O)C(C(N)=O)=C(O)[C@@]2(O)C(=O)C3=C(O)c4c(O)cccc4[C@@](C)(O)[C@H]3[C@H](O)[C@@H]12` is ___
stdout: 1 (inactive)

stdin: Fill in: normalized growth of `CCCc1c(OCCCCc2nn[nH]n2)ccc(C(C)=O)c1O` is ___
stdout: 0.989 (inactive)

stdin: Fill in: normalized growth of `C=C1c2cccc(O)c2C(O)=C2C(=O)[C@]3(O)C(O)=C(C(N)=O)C(=O)[C@@H](N(C)C)[C@@H]3[C@@H](O)[C@H]12` is ___
stdout: 0.991 (inactive)

stdin: Fill in: normalized growth of `CN(C)c1ccc(O)c2c1C[C@H]1C[C@H]3[C@H](N(C)C)C(=O)C(C(N)=O)=C(O)[C@@]3(O)C(=O)C1=C2O` is ___
stdout: 0.98 (inactive)

stdin: Fill in: normalized growth of `CN[C@@H]1[C@H](O)[C@H](NC)[C@H]2O[C@@]3(O)C(=O)C[C@@H](C)O[C@H]3O[C@@H]2[C@H]1O` is ___
stdout: 1.02 (inactive)

Data origin, for the record: PubChem BioAssay AID1159580
